Would you kindly list pKd for each of these binders?
- Tgt: T1, human TfR ectodomain fused to a mouse IgG1 Fc fragment (human, UniProt P02786 89-760)
- T1 construct: extracellular domain; ectodomain fused to the N-terminal end of the Fc, made in-house; not shown: mouse IgG1 Fc fragment
- Procedure Text: SPR, at equilibrium
Remember, pKd is on a log scale: it is -log10 of the molar concentration.

query: # input binder: B8^V32 (VHH) VHH: EVQLVESGGGVVQPGGSLRLSCAASGEIRSINFMRWYRQAPGKQREWVAGFTRDGSTNYPDSAKGRFTISRDNAKNTVYLQIDSLKPEDTAVYYCYMLDTWGQGTQVTVSS ; wanted: its pKd
result: 7.44

query: # input binder: C10a (VHH) VHH: EVQLVESGGGLVQAGDSLRLSCAASGFASHLYAIGWFRQAPGKEREKVSCISSNDGSTYYADSVKGRFTISRDTVKDMVYLQMNSLKPEDTAVYYCATDLTVHCFMAEYDWWGQGTQVTVSS ; wanted: its pKd
result: 7.06
